- Test system: Neuregulin-1 EGF-like domain
- measurement.protocol: binders of neuregulin-1 EGF-like domain, primary screen, biochemical, small-molecule microarray, 635 nm fluorescence (AID 1081);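 also: binding of the protein to compounds printed on small-molecule microarray slides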
- test.conditions: small-molecule microarray binding, higher = more signal
Kindly return yes if reported composite z-score is no lower than 0.4; return no if it is lower.

[
  {
    "compound": "O=C1C[C@@](C(=O)NCC(F)(F)F)(c2ccc([N+](=O)[O-])cc2)[C@@H](c2ccc(CO)cc2I)N1CC12CC3CC(CC(C3)C1)C2",
    "answer.label": "yes"
  },
  {
    "compound": "CCCC1(C(=O)OC)C=C2C(=C(C(C)C)C(=O)C2C)CN1 (stereo unspecified)",
    "answer.label": "no"
  },
  {
    "compound": "[N-]=[N+]=NCc1ccccc1C[C@@]1(C(=O)NCCN2CCOCC2)N=C(c2ccc(OCCCO)cc2)O[C@@H]1c1ccccc1",
    "answer.label": "yes"
  },
  {
    "compound": "O=C1OC[C@@H](c2ccccc2)n2cc(/C=C/c3ccccc3)cc21",
    "answer.label": "no"
  },
  {
    "compound": "COC(=O)[C@@]1(Cc2ccc(F)cc2)[C@H]2c3cc(C(=O)N(C)C)n(Cc4ccc(C(F)(F)F)nc4)c3C[C@H]2CN1C(=O)c1ccccc1",
    "answer.label": "yes"
  },
  {
    "compound": "[N-]=[N+]=NCc1ccccc1[C@H]1OC(c2ccc(OCCCO)cc2)=N[C@@]1(CCS(=O)(=O)c1ccccc1)C(=O)O",
    "answer.label": "no"
  },
  {
    "compound": "C=C(C(=O)CC[C@@H](OC(=O)c1cccnc1)c1cccc(OCCO)c1)C(C)C",
    "answer.label": "no"
  },
  {
    "compound": "COc1cccc(C)c1NC(=O)O[C@H]1[C@H](OC(=O)Nc2ccc3c(c2)OCO3)[C@H](OC(=O)Nc2ccc3c(c2)OCO3)[C@@H](OC)O[C@@H]1CO",
    "answer.label": "yes"
  },
  {
    "compound": "C=CC[C@]1(C(=O)NCC(O)CO)N=C(c2ccc(OCCCO)cc2)O[C@H]1c1ccccc1CN=[N+]=[N-] (stereo partly specified)",
    "answer.label": "yes"
  },
  {
    "compound": "Cc1ccc(S(=O)(=O)N2[C@@H](c3ccccc3)C(C(=O)O)=CC[C@H]2c2ccc(F)cc2)cc1",
    "answer.label": "yes"
  },
  {
    "compound": "CC(C)N1C(=O)[C@@]2(Cc3ccccc31)c1ccccc1C(=O)N(Cc1ccccc1C(F)(F)F)[C@H]2c1ccc(CO)cc1",
    "answer.label": "yes"
  },
  {
    "compound": "CN1C(=O)C2C(C1=O)C1C=C(CCCO)C2C(C2CC2)N1C (stereo unspecified)",
    "answer.label": "yes"
  },
  {
    "compound": "CC1(C)OB(/C=C\\CC(OC(=O)c2ccncc2)c2ccccc2)OC1(C)C (stereo unspecified)",
    "answer.label": "no"
  },
  {
    "compound": "CCCCC=C[C@@H](NC(=O)C(C)(C)C)c1ccccc1",
    "answer.label": "no"
  },
  {
    "compound": "COc1ccc(C(=O)Nc2ccc(CN3C(=O)[C@@]4(O[C@@H](CC(=O)N(CCO)Cc5ccccc5)[C@H]([Si](C)(C)c5ccc(OC)cc5)[C@H]4C)c4ccccc43)cc2)cc1",
    "answer.label": "yes"
  },
  {
    "compound": "C=CCNC(=O)[C@@H]1[C@H]2C(=O)O[C@H](c3ccccc3)[C@H](c3ccccc3)N2[C@H](c2ccc(O)cc2)[C@@]12C(=O)N(C(=O)OCCOC)c1ccc(C#CCC(C(=O)OC)C(=O)OC)cc12",
    "answer.label": "yes"
  }
]

###

- measurement.protocol: FRG1 promoter luciferase signal modulators, primary screen, FRG1 inhibition for FSHD, cell-based, C2C12 myotubes, firefly/Renilla luciferase, luminescence (AID 1084)
- test.conditions: higher = more signal, called active from +8 up or from −8 down
value.type: z-score

[
  {
    "compound": "CC(C)C[C@H]1NC(=O)CNC(=O)[C@@]23C(=O)N[C@@H](Cc4ccccc4)C2[C@H](C)[C@@]2(C)O[C@H]2C3/C=C/C/C=C\\CNC1=O (some centres not stated)",
    "recorded.measurement": 1.81
  },
  {
    "compound": "COC(=O)C(CC#Cc1ccc2c(c1)[C@]1(C(=O)N2)[C@H](C(=O)NC[C@H](O)c2ccccc2)[C@H]2C(=O)O[C@H](c3ccccc3)[C@H](c3ccccc3)N2[C@@H]1c1ccc(O)cc1)C(=O)OC",
    "recorded.measurement": 0.589
  },
  {
    "compound": "COc1ccc(C#Cc2ccc3c(c2)[C@]2(C(=O)N3)[C@H](c3ccccc3OCCO)N3[C@H](c4ccccc4)[C@H](c4ccccc4)OC(=O)[C@H]3[C@@H]2C(=O)NC[C@H](O)c2ccccc2)cc1",
    "recorded.measurement": 0.621
  },
  {
    "compound": "COC(=O)[C@@]1(Cc2ccc(F)cc2)[C@H]2c3cc(C(=O)N4CCCC4)n(CCc4c[nH]c5cc(F)ccc45)c3C[C@H]2CN1C(=O)c1ccccc1",
    "recorded.measurement": 0.53
  },
  {
    "compound": "O=C1C2C=CC(C(O)C(c3ccccc3)c3ccccc3)N(Nc3ccccc3F)C2C(=O)N1c1ccccc1 (configuration not stated)",
    "recorded.measurement": -0.243
  },
  {
    "compound": "CC[C@H]1C2=C3C(CC[C@H]4C(OCc5ccc(F)cc5C(F)(F)F)OC[C@](C)([C@@H]34)N(C(=O)OC(C)(C)C)C2)C(COC(C)=O)C1COC(C)=O (some centres not stated)",
    "recorded.measurement": 1.48
  },
  {
    "compound": "Cc1ccc(S[C@]2(C(=O)NC(C)C)CC(=O)N(Cc3ccccc3)[C@@H]2c2ccc(CO)cc2I)cc1",
    "recorded.measurement": -0.259
  },
  {
    "compound": "COc1cc2c(cc1O)C(C)N(Cc1sc3ccccc3c1Cl)CC2 (configuration not stated)",
    "recorded.measurement": 0.541
  },
  {
    "compound": "COc1ccc([Si](C)(C)[C@H]2[C@H](CCO)O[C@@]3(C(=O)N(Cc4ccccc4)c4ccc(NC(=O)[C@H](C)O)cc43)[C@@H]2C)cc1",
    "recorded.measurement": -3.18
  },
  {
    "compound": "COC(=O)c1ccc(OC)c(/C=C\\CC(OC(=O)c2ccncc2)c2ccccc2)c1 (configuration not stated)",
    "recorded.measurement": -1.97
  },
  {
    "compound": "Cc1ccc(S[C@]2(C(=O)NCc3ccccc3)CC(=O)N(Cc3ccccc3Cl)[C@@H]2c2ccc(CO)cc2)cc1",
    "recorded.measurement": -3.18
  },
  {
    "compound": "CC(C)Cc1ccc(CN2CC[C@@H](NC(=O)c3ccccc3)C2)cc1",
    "recorded.measurement": -0.623
  },
  {
    "compound": "O=C(NCCN1CCOCC1)[C@@H]1c2ccccc2C(=O)N(CC23CC4CC(CC(C4)C2)C3)[C@H]1c1ccc(CO)cc1",
    "recorded.measurement": -2.37
  },
  {
    "compound": "CCc1cccc(NC(=O)O[C@H]2[C@H](OC(=O)Nc3ccccc3-c3ccccc3)[C@H](OC(=O)Nc3ccccc3-c3ccccc3)[C@@H](OC)O[C@@H]2CO)c1",
    "recorded.measurement": -0.714
  },
  {
    "compound": "COc1ccc([Si](C)(C)[C@H]2[C@H](CC(=O)N(CCO)Cc3ccccc3)O[C@@]3(C(=O)N(c4ccccc4)c4ccccc43)[C@@H]2C)cc1",
    "recorded.measurement": -1.91
  },
  {
    "compound": "CC(C)N1C(=O)[C@@]2(Cc3ccccc31)c1ccccc1C(=O)N(Cc1ccccc1)[C@H]2c1ccc(CO)cc1",
    "recorded.measurement": -0.0076
  },
  {
    "compound": "O=C1OCCC/C=C\\[C@H]2OC34C=CCN(Cc5ccccc5)C(=O)[C@H]3N(CCO)C(=O)[C@@H]4C12 (some centres not stated)",
    "recorded.measurement": 0.0936
  },
  {
    "compound": "COc1cccc(C)c1NC(=O)O[C@H]1[C@H](OC(=O)Nc2ccccc2-c2ccccc2)[C@@H](OC(=O)Nc2ccccc2-c2ccccc2)[C@@H](OC)O[C@@H]1CO",
    "recorded.measurement": 0.945
  },
  {
    "compound": "O=C1C[C@@](C(=O)NCC(F)(F)F)(c2ccc([N+](=O)[O-])cc2)[C@@H](c2ccc(CO)cc2I)N1CC12CC3CC(CC(C3)C1)C2",
    "recorded.measurement": -2.99
  },
  {
    "compound": "COc1ccc([Si](C)(C)[C@@H]2[C@@H](CC(=O)N3Cc4ccccc4C[C@H]3CO)O[C@]3(C(=O)N(Cc4ccc(I)cc4)c4ccccc43)[C@H]2C)cc1",
    "recorded.measurement": -2.83
  },
  {
    "compound": "CC(C)C[C@@H]1NC(=O)[C@@H]2C[C@H](C(=O)NCCCCCCNC(=O)CS)[C@H](c3ccc(O)cc3)N2C1=O",
    "recorded.measurement": 0.0812
  },
  {
    "compound": "COCCCNC(=O)[C@@]1(Cc2ccccc2I)c2ccccc2C(=O)N(C2CCCCC2)[C@H]1c1ccc(CO)cc1",
    "recorded.measurement": -4.02
  },
  {
    "compound": "COCCOC(=O)N1C(=O)[C@@]2(c3cc(C#CCNC(N)=O)ccc31)[C@H](C(N)=O)[C@H]1C(=O)O[C@H](c3ccccc3)[C@H](c3ccccc3)N1[C@@H]2c1ccc(O)cc1",
    "recorded.measurement": -0.329
  },
  {
    "compound": "CC(C)c1ccc(NN2C(C(O)C3=C[C@H]4C[C@@H](C3)C4(C)C)C=CC3C(=O)N(c4ccccc4)C(=O)C32)cc1 (some centres not stated)",
    "recorded.measurement": -1.01
  },
  {
    "compound": "CC(C)[Si](C#Cc1ccccc1)(O[C@H](c1ccccc1)c1cn(Cc2ccccc2)nn1)C(C)C",
    "recorded.measurement": 0.92
  },
  {
    "compound": "COCCOC(=O)N1C(=O)[C@@]2(c3cc(C#CCNC(N)=O)ccc31)[C@H](c1ccc(O)cc1)N1[C@H](c3ccccc3)[C@H](c3ccccc3)OC(=O)[C@H]1[C@@H]2C(=O)N1CCc2cc(OC)c(OC)cc2C1",
    "recorded.measurement": 0.411
  },
  {
    "compound": "C=C(/C=C\\CNS(=O)(=O)c1ccc(C)cc1)[C@H](O)[C@H]1CCCN1S(=O)(=O)c1ccccc1[N+](=O)[O-]",
    "recorded.measurement": -4.49
  }
]

From: PubChem BioAssay
